The values you see were collected from ChEMBL document CHEMBL1156776.

experiment: Stability in mouse plasma assessed as compound remaining after 90 mins relative to basal level; type: ADME, cell-free; conditions: read-out: Stability
Measurement type: remaining at 1.5 h (%)
Numbers only; they are read as %.

Query: Tell me the measured remaining at 1.5 h of COC[C@H]1OC(=O)/C(=C\N(C)CCCN(C)C)C2=C(O)C(=O)C3=C([C@H](OC(C)=O)C[C@]4(C)[C@@H](OC(=O)CCCCCCC(=O)O[C@@H]5CC[C@@H](C[C@@H](C)[C@@H]6CC(=O)[C@H](C)/C=C(\C)[C@@H](O)[C@@H](OC)C(=O)[C@H](C)C[C@H](C)/C=C/C=C/C=C(\C)[C@@H](OC)C[C@@H]7CC[C@@H](C)[C@@](O)(O7)C(=O)C(=O)N7CCCC[C@H]7C(=O)O6)C[C@H]5OC)CC[C@@H]34)[C@]21C , please.
Response: 10

====

test: Stability in rat plasma assessed as compound remaining after 30 mins relative to basal level; type: ADME, cell-free; details: read-out: Stability
Measurement type: remaining at 0.5 h (%)
Entry rule: numbers only, all in %.

Query: Entry under review: COC[C@H]1OC(=O)/C(=C\N(C)CCCN(C)C)C2=C(O)C(=O)C3=C([C@H](OC(C)=O)C[C@]4(C)[C@@H](OC(=O)CCCCCCC(=O)O[C@@H]5CC[C@@H](C[C@@H](C)[C@@H]6CC(=O)[C@H](C)/C=C(\C)[C@@H](O)[C@@H](OC)C(=O)[C@H](C)C[C@H](C)/C=C/C=C/C=C(\C)[C@@H](OC)C[C@@H]7CC[C@@H](C)[C@@](O)(O7)C(=O)C(=O)N7CCCC[C@H]7C(=O)O6)C[C@H]5OC)CC[C@@H]34)[C@]21C . Reported remaining at 0.5 h?
Response: 71

====

assay: Stability in human liver microsomes assessed as compound remaining after 30 mins; format: ADME, Microsome; details: read-out: Stability
Measurement type: remaining at 0.5 h

Query: Requested field: remaining at 0.5 h. Item: COC[C@H]1OC(=O)/C(=C\N(C)CCCN(C)C)C2=C(O)C(=O)C3=C([C@H](OC(C)=O)C[C@]4(C)[C@@H](OC(=O)CCCCCCC(=O)O[C@@H]5CC[C@@H](C[C@@H](C)[C@@H]6CC(=O)[C@H](C)/C=C(\C)[C@@H](O)[C@@H](OC)C(=O)[C@H](C)C[C@H](C)/C=C/C=C/C=C(\C)[C@@H](OC)C[C@@H]7CC[C@@H](C)[C@@](O)(O7)C(=O)C(=O)N7CCCC[C@H]7C(=O)O6)C[C@H]5OC)CC[C@@H]34)[C@]21C
Response: ≥ 50%

====

assay: Stability in rat plasma assessed as compound remaining after 60 mins relative to basal level; type: ADME, cell-free; conditions: read-out: Stability
Measurement type: remaining at 1 h (%)
Give the value in % but do not write % after it.

Query: Param item = COC[C@H]1OC(=O)/C(=C\N(C)CCCN(C)C)C2=C(O)C(=O)C3=C([C@H](OC(C)=O)C[C@]4(C)[C@@H](OC(=O)CCCCCCC(=O)O[C@@H]5CC[C@@H](C[C@@H](C)[C@@H]6CC(=O)[C@H](C)/C=C(\C)[C@@H](O)[C@@H](OC)C(=O)[C@H](C)C[C@H](C)/C=C/C=C/C=C(\C)[C@@H](OC)C[C@@H]7CC[C@@H](C)[C@@](O)(O7)C(=O)C(=O)N7CCCC[C@H]7C(=O)O6)C[C@H]5OC)CC[C@@H]34)[C@]21C ; retrieve measured remaining at 1 h.
Response: 64

====

species on record: Homo sapiens; test: Stability in human plasma assessed as compound remaining after 15 mins relative to basal level
Measurement type: remaining at 0.25 h (%)
Please state the figure in %; there is no need to write the unit.

Query: Name the reported remaining at 0.25 h value associated with the compound COC[C@H]1OC(=O)/C(=C\N(C)CCCN(C)C)C2=C(O)C(=O)C3=C([C@H](OC(C)=O)C[C@]4(C)[C@@H](OC(=O)CCCCCCC(=O)O[C@@H]5CC[C@@H](C[C@@H](C)[C@@H]6CC(=O)[C@H](C)/C=C(\C)[C@@H](O)[C@@H](OC)C(=O)[C@H](C)C[C@H](C)/C=C/C=C/C=C(\C)[C@@H](OC)C[C@@H]7CC[C@@H](C)[C@@](O)(O7)C(=O)C(=O)N7CCCC[C@H]7C(=O)O6)C[C@H]5OC)CC[C@@H]34)[C@]21C
Response: 93

====

species on record: Homo sapiens; assay: Stability in human plasma assessed as compound remaining after 5 mins relative to basal level
Measurement type: remaining at 5 min (%)
Just the number please, in %, no unit attached.

Query: Which remaining at 5 min reading was recorded for the molecule COC[C@H]1OC(=O)/C(=C\N(C)CCCN(C)C)C2=C(O)C(=O)C3=C([C@H](OC(C)=O)C[C@]4(C)[C@@H](OC(=O)CCCCCCC(=O)O[C@@H]5CC[C@@H](C[C@@H](C)[C@@H]6CC(=O)[C@H](C)/C=C(\C)[C@@H](O)[C@@H](OC)C(=O)[C@H](C)C[C@H](C)/C=C/C=C/C=C(\C)[C@@H](OC)C[C@@H]7CC[C@@H](C)[C@@](O)(O7)C(=O)C(=O)N7CCCC[C@H]7C(=O)O6)C[C@H]5OC)CC[C@@H]34)[C@]21C ?
Response: 86

====

Examples of compounds with documented remaining at 2 h follow.
test: Stability in mouse plasma assessed as compound remaining after 120 mins relative to basal level; format: ADME, cell-free; conditions: read-out: Stability
Lab book: enter the figure in %, no units written.

>>> reported_value("COC[C@H]1OC(=O)/C(=C\\N(C)CCCN(C)C)C2=C(O)C(=O)C3=C([C@H](OC(C)=O)C[C@]4(C)[C@@H](OC(=O)CCCCCCC(=O)O[C@@H]5CC[C@@H](C[C@@H](C)[C@@H]6CC(=O)[C@H](C)/C=C(\\C)[C@@H](O)[C@@H](OC)C(=O)[C@H](C)C[C@H](C)/C=C/C=C/C=C(\\C)[C@@H](OC)C[C@@H]7CC[C@@H](C)[C@@](O)(O7)C(=O)C(=O)N7CCCC[C@H]7C(=O)O6)C[C@H]5OC)CC[C@@H]34)[C@]21C")
8

Query: Quick check: remaining at 2 h of COC[C@H]1OC(=O)/C(=C\N(C)CCCN(C)C)C2=C(O)C(=O)C3=C([C@H](OC(C)=O)C[C@]4(C)[C@@H](OC(=O)CCC(=O)O[C@@H]5CC[C@@H](C[C@@H](C)[C@@H]6CC(=O)[C@H](C)/C=C(\C)[C@@H](O)[C@@H](OC)C(=O)[C@H](C)C[C@H](C)/C=C/C=C/C=C(\C)[C@@H](OC)C[C@@H]7CC[C@@H](C)[C@@](O)(O7)C(=O)C(=O)N7CCCC[C@H]7C(=O)O6)C[C@H]5OC)CC[C@@H]34)[C@]21C ?
Response: 15

Query: Thanks! And COC[C@H]1OC(=O)/C(=C\N(C)CCCN(C)C)C2=C(O)C(=O)C3=C([C@H](OC(C)=O)C[C@]4(C)[C@@H](OC(=O)CCCCC(=O)O[C@@H]5CC[C@@H](C[C@@H](C)[C@@H]6CC(=O)[C@H](C)/C=C(\C)[C@@H](O)[C@@H](OC)C(=O)[C@H](C)C[C@H](C)/C=C/C=C/C=C(\C)[C@@H](OC)C[C@@H]7CC[C@@H](C)[C@@](O)(O7)C(=O)C(=O)N7CCCC[C@H]7C(=O)O6)C[C@H]5OC)CC[C@@H]34)[C@]21C ?
Response: 4

====

experiment: Stability in rat plasma assessed as compound remaining after 5 mins relative to basal level; format: ADME, cell-free; settings: read-out: Stability
Measurement type: remaining at 5 min (%)
Please reply with the bare figure in % and do not write the unit itself.

Query: Can you share its remaining at 5 min? I mean this compound: COC[C@H]1OC(=O)/C(=C\N(C)CCCN(C)C)C2=C(O)C(=O)C3=C([C@H](OC(C)=O)C[C@]4(C)[C@@H](OC(=O)CCCCCCC(=O)O[C@@H]5CC[C@@H](C[C@@H](C)[C@@H]6CC(=O)[C@H](C)/C=C(\C)[C@@H](O)[C@@H](OC)C(=O)[C@H](C)C[C@H](C)/C=C/C=C/C=C(\C)[C@@H](OC)C[C@@H]7CC[C@@H](C)[C@@](O)(O7)C(=O)C(=O)N7CCCC[C@H]7C(=O)O6)C[C@H]5OC)CC[C@@H]34)[C@]21C
Response: 91

====

assay: Stability in mouse plasma assessed as compound remaining after 30 mins relative to basal level; type: ADME, cell-free; conditions: read-out: Stability
Measurement type: remaining at 0.5 h (%)
Hi! Could you send only the number? It should be in %, unit omitted.

Query: What value of measured remaining at 0.5 h is listed for COC[C@H]1OC(=O)/C(=C\N(C)CCCN(C)C)C2=C(O)C(=O)C3=C([C@H](OC(C)=O)C[C@]4(C)[C@@H](OC(=O)CCCCCCC(=O)O[C@@H]5CC[C@@H](C[C@@H](C)[C@@H]6CC(=O)[C@H](C)/C=C(\C)[C@@H](O)[C@@H](OC)C(=O)[C@H](C)C[C@H](C)/C=C/C=C/C=C(\C)[C@@H](OC)C[C@@H]7CC[C@@H](C)[C@@](O)(O7)C(=O)C(=O)N7CCCC[C@H]7C(=O)O6)C[C@H]5OC)CC[C@@H]34)[C@]21C ?
Response: 18
